pIC50 values by entry
# system-tested: T1, human GIP receptor (human, UniProt P48546 22-466)
# T1 construct: whole, on cells; also called hGIPR
# T1 sequence (looked up): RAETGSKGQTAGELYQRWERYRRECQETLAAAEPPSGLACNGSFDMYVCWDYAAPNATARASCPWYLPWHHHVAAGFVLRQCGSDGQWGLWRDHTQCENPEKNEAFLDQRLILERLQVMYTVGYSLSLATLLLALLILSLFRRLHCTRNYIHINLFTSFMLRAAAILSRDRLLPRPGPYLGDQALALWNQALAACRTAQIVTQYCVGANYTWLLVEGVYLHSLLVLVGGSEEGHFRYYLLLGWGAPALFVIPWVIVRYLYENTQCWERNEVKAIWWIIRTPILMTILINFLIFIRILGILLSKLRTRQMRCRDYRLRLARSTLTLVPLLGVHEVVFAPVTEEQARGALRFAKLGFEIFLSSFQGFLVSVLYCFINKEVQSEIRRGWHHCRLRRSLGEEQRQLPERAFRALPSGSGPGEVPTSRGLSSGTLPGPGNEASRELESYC
# test-protocol: 125I-hGIP competition binding, COS-7/hGIPR, 2% HSA;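 also: nonspecific binding defined as radioligand binding to untransfected cells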
pIC50: −log10 of the molar value. Ends that are not written are not given here. * marks the point of attachment. Stearoyl = CCCCCCCCCCCCCCCCCC(=O)*; Myristoyl = CCCCCCCCCCCCCC(=O)*

>  <binder>
EGTFISDYSIAMDK(Stearoyl)IHQQDFVNWLLAQK-NH2 [AT114 [hGIP(3-30)NH2-C18/16]]

>  <pIC50>
5.26

$$$$
>  <binder>
EGTFISDYSIAMDK(Myristoyl)IHQQDFVNWLLAQK-NH2 [AT111 [hGIP(3-30)NH2-C14/16]]

>  <pIC50>
5.68

$$$$
>  <binder>
TKISDYSIAMDKIHQQDFVNWLLAQK (C16-diacid fatty acyl on Lys 6 (GIP numbering); C-terminal amide) [AT168 [hGIP(5-30)NH2[F6K]-C16diacid/6]]

>  <pIC50>
7.00

$$$$
